TEST_TARGET: CDK9 (Homo sapiens, UniProt P50750)
Construct: host or cells: HEK293
Sequence (P50750 whole entry): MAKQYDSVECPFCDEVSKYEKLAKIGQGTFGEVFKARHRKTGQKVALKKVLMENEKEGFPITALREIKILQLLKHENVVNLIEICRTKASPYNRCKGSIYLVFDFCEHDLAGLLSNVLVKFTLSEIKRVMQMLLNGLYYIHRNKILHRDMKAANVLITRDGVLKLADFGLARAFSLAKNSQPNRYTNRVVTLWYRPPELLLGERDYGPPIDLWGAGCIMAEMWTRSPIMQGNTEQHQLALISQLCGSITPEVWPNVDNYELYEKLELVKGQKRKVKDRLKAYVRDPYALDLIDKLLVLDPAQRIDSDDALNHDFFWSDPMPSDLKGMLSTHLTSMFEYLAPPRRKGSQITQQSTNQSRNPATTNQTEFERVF
PROTOCOL_DETAILS: CDK9 HIBIT PQ (protein quantification), degradation
Type: cell-based
RECORDED_CONDITIONS: Max = Maximum
MEASUREMENT_NAME: Dmax (%)

Solved entries:
CC(C)Oc1c(-c2cn[nH]c2)ncn2nc(Nc3ccc(S(=O)(=O)N4CCCC(CN5CCC(c6ccc7c(N8CCC(=O)NC8=O)nn(C)c7c6)C(C)C5)C4)cc3F)nc12 (stereo not shown); 77
CC(C)Oc1c(-c2cn[nH]c2)ncn2nc(NC3CCN(S(=O)(=O)c4cccc(CN5CC6(C5)CN(c5ccc7c(c5)CN(C5CCC(=O)NC5=O)C7=O)C6)c4)CC3)nc12 (racemic); 92
CC(C)Oc1c(-c2cn[nH]c2)ncn2nc(Nc3ccc(S(=O)(=O)N(C)CCCN4CCN(c5ccc6c(c5)n(C)c(=O)n6C5CCC(=O)NC5=O)C[C@@H]4C(C)C)cc3F)nc12 (stereo partly shown); 74
CC(C)Oc1c(-c2cn[nH]c2)ncn2nc(Nc3ccc(S(=O)(=O)N(C)CCCN4CCC(c5ccc6c(c5)n(C)c(=O)n6C5CCC(=O)NC5=O)CC4)c4ccoc34)nc12 (racemic); 67
CC(C)Oc1c(-c2cn[nH]c2)ncn2nc(Nc3ccc(S(=O)(=O)c4cccc(CN5CCN(c6ccc7c(N8CCC(=O)NC8=O)nn(C)c7c6)CC5(C)C)c4)cc3F)nc12; 74

[A] CC(C)Oc1c(-c2cn[nH]c2)ncn2nc(Nc3ccc(S(=O)(=O)c4ccc(CN5CCC(c6ccc7c(c6)n(C)c(=O)n7[C@H]6CCC(=O)NC6=O)CC5)o4)cc3F)nc12
[B] CC(C)Oc1c(-c2cn[nH]c2)ncn2nc(NC3CCN(S(=O)(=O)N(C)CCCN4CCC(c5cccc6c5n(C)c(=O)n6C5CCC(=O)NC5=O)CC4)CC3)nc12 (racemic)
IN: Recorded Dmax values differ for A and B ; which one is higher? Let me know the label of the one you choose.
OUT: B
(B: 77%, A: 31%)

[I] CC(C)Oc1c(-c2cn[nH]c2)ncn2nc(NC3CCN(S(=O)(=O)N4CCC(CN5CCC(c6cccc7c6n(C)c(=O)n7C6CCC(=O)NC6=O)CC5)CC4)CC3)nc12 (racemic)
[II] CC(C)Oc1c(-c2cn[nH]c2)ncn2nc(Nc3ccc(S(=O)(=O)c4cccc(C[C@H]5C[C@H](c6ccc7c(N8CCC(=O)NC8=O)nn(C)c7c6)C5)c4)cc3F)nc12
IN: Hey, between I and II which has a smaller measured Dmax? Let me know the label of the one you choose.
OUT: II
(II: 17%, I: 103%)

---

TEST_TARGET: CDK9 (Homo sapiens)
Construct: host or cells: HEK293
PROTOCOL_DETAILS: CDK9 HIBIT PQ (protein quantification), degradation
Format: cell-based
RECORDED_CONDITIONS: PQ = Protein Quantification
MEASUREMENT_NAME: DC50 (nM)

Solved entries:
CC(C)Oc1c(-c2cn[nH]c2)ncn2nc(Nc3ccc(S(=O)(=O)N4CCC(CN5CCC(c6cccc7c6n(C)c(=O)n7C6CCC(=O)NC6=O)CC5)CC4)cc3F)nc12 (racemic) [Compound 14]; 1.12
CC(C)Oc1c(-c2cn[nH]c2)ncn2nc(NC3CCN(S(=O)(=O)N(C)CCCN4CCC(c5cccc6c5n(C)c(=O)n6C5CCC(=O)NC5=O)CC4)CC3)nc12 (racemic) [Compound 19]; 3.8

[P] CC(C)Oc1c(-c2cn[nH]c2)ncn2nc(Nc3ccc(S(=O)(=O)c4cccc(C[C@H]5C[C@H](c6ccc7c(c6)CN(C6CCC(=O)NC6=O)C7=O)C5)c4)cc3F)nc12 (stereo partly shown) [Compound 30]
[Q] CC(C)Oc1c(-c2cn[nH]c2)ncn2nc(Nc3ccc(S(=O)(=O)N(C)CCCN4CCC(c5cccc6c5n(C)c(=O)n6C5CCC(=O)NC5=O)CC4)cc3F)nc12 (racemic) [Compound 18]
[R] CC(C)Oc1c(-c2cn[nH]c2)ncn2nc(Nc3ccc(S(=O)(=O)N(C)CCCN4CCN(c5ccc6c(c5)n(C)c(=O)n6C5CCC(=O)NC5=O)CC4(C)C)cc3F)nc12 (racemic) [Compound 67]
[S] CC(C)Oc1c(-c2cn[nH]c2)ncn2nc(Nc3ccc(S(=O)(=O)c4cccc(OC5CN(C6CCN(c7ccc8c(c7)CN(C7CCC(=O)NC7=O)C8=O)CC6)C5)c4)cc3F)nc12 (racemic) [Compound 23]
IN: Given 4 molecules, produce a descending ranking by DC50. Labels, ranked as asked.
OUT: P, S, Q, R

---

TEST_TARGET: CCNE1 (Homo sapiens, UniProt P24864+P24941)
Construct: host or cells: HEK293
PROTOCOL_DETAILS: CCNE1 HIBIT PQ (protein quantification), degradation
Assay type: cell-based
RECORDED_CONDITIONS: Max = Maximum
MEASUREMENT_NAME: CCNE1 HIBIT PQ Max (%)

Solved entries:
CC(C)Oc1c(-c2cn[nH]c2)ncn2nc(Nc3ccc(S(=O)(=O)c4cccc(C[C@H]5C[C@H](c6ccc7c(c6)CN(C6CCC(=O)NC6=O)C7=O)C5)c4)cc3F)nc12 (some centres unmarked); 79
CC(C)Oc1c(-c2cn[nH]c2)ncn2nc(Nc3ccc(S(=O)(=O)c4cccc(CN5CCC(c6cccc7c(N8CCC(=O)NC8=O)nn(C)c67)CC5)c4)cc3F)nc12; 51
CCC1CN(c2ccc3c(N4CCC(=O)NC4=O)nn(C)c3c2)CCN1Cc1cccc(S(=O)(=O)N2CC[C@H](Nc3nc4c(OC(C)C)c(-c5cn[nH]c5)ncn4n3)[C@H](C)C2)c1 (some centres unmarked); 90

[a] CC(C)Oc1c(-c2cn[nH]c2)ncn2nc(NC3CCN(S(=O)(=O)N4CCC(CN5CCC(c6cccc7c6n(C)c(=O)n7C6CCC(=O)NC6=O)CC5)CC4)CC3)nc12 (racemic)
[b] CC(C)Oc1c(-c2cn[nH]c2)ncn2nc(Nc3ccc(S(=O)(=O)N(C)CCCN4CCN(c5ccc6c(c5)n(C)c(=O)n6C5CCC(=O)NC5=O)C[C@H]4C(C)C)cc3F)nc12 (some centres unmarked)
IN: Hey, between a and b which has a smaller measured CCNE1 HIBIT PQ Max (%)? Let me know the label of the one you choose.
OUT: b

---

TEST_TARGET: CDK2 (Homo sapiens)
Construct: host or cells: HEK293
PROTOCOL_DETAILS: CDK2 HIBIT PQ (protein quantification), degradation
Format: cell-based
RECORDED_CONDITIONS: PQ = Protein Quantification
MEASUREMENT_NAME: DC50 (nM)

CC(C)Oc1c(-c2cn[nH]c2)ncn2nc(Nc3ccc(S(=O)(=O)N4CC5(CCCN(CCOc6cccc7c6n(C)c(=O)n7C6CCC(=O)NC6=O)C5)C4)cc3F)nc12 (centres unmarked) [Compound 27]; 6.3

[A] CC(C)Oc1c(-c2cn[nH]c2)ncn2nc(Nc3ccc(S(=O)(=O)N4CCC5(CCCN5C5CCN(c6ccc7c(c6)n(C)c(=O)n7C6CCC(=O)NC6=O)CC5)C4)cc3F)nc12 (centres unmarked) [Compound 37]
[B] CC(C)Oc1c(-c2cn[nH]c2)ncn2nc(Nc3ccc(S(=O)(=O)c4cccc(CN5CCN(c6ccc7c(N8CCC(=O)NC8=O)nn(C)c7c6)CC5(C)C)c4)cc3F)nc12 [Compound 47]
IN: Recorded DC50 values differ for A and B ; which one is higher? Let me know the label of the one you choose.
OUT: B

---

TEST_TARGET: CDK2 (Homo sapiens)
Construct: host or cells: HEK293
PROTOCOL_DETAILS: CDK2 HIBIT PQ (protein quantification), degradation
Type: cell-based
RECORDED_CONDITIONS: Max = Maximum
MEASUREMENT_NAME: CDK2 HIBIT PQ Max (%)

CC(C)Oc1c(-c2cn[nH]c2)ncn2nc(Nc3ccc(S(=O)(=O)N(C)CCCN4CCC(c5ccc6c(c5)n(C)c(=O)n6C5CCC(=O)NC5=O)CC4)cc3)nc12 (racemic); 89
CC(C)Oc1c(-c2cn[nH]c2)ncn2nc(Nc3ccc(S(=O)(=O)c4cccc(CN5CCN(c6ccc7c(N8CCC(=O)NC8=O)nn(C)c7c6)C6CC65)c4)cc3F)nc12 (stereo not shown); 92
CC(C)Oc1c(-c2cn[nH]c2)ncn2nc(Nc3ccc(S(=O)(=O)c4cccc(CN5CCN(c6ccc7c(N8CCC(=O)NC8=O)nn(C)c7c6)CC5)c4)cc3F)nc12; 96
CC(C)Oc1c(-c2cn[nH]c2)ncn2nc(Nc3ccc(S(=O)(=O)c4cccc(CN5CCC(c6ccc7c(c6)n(C)c(=O)n7C6CCC(=O)NC6=O)CC5)c4)cc3F)nc12 (racemic); 81
CC(C)Oc1c(-c2cn[nH]c2)ncn2nc(Nc3ccc(S(=O)(=O)N4CC5(CCCN(CCOc6cccc7c6n(C)c(=O)n7C6CCC(=O)NC6=O)C5)C4)cc3F)nc12 (stereo not shown); 66
CC(C)Oc1c(-c2cn[nH]c2)ncn2nc(Nc3ccc(S(=O)(=O)N(C)CCCN4C5CC4CN(c4ccc6c(c4)n(C)c(=O)n6C4CCC(=O)NC4=O)C5)cc3F)nc12 (stereo not shown); 61
CC(C)Oc1c(-c2cn[nH]c2)ncn2nc(Nc3ccc(S(=O)(=O)c4cccc(CC5CC(c6ccc7c(c6)CN(C6CCC(=O)NC6=O)C7=O)C5)c4)cc3F)nc12 (stereo not shown); 95
CC(C)Oc1c(-c2cn[nH]c2)ncn2nc(Nc3ccc(S(=O)(=O)N4CC5(CCCN(CC6CCN(c7cccc8c7n(C)c(=O)n8C7CCC(=O)NC7=O)CC6)C5)C4)cc3F)nc12 (racemic); 87
CC(C)Oc1c(-c2cn[nH]c2)ncn2nc(Nc3ccc(S(=O)(=O)N4CCC5(CCCN5C5CCN(c6ccc7c(c6)n(C)c(=O)n7C6CCC(=O)NC6=O)CC5)C4)cc3F)nc12 (stereo not shown); 84
CC(C)Oc1c(-c2cn[nH]c2)ncn2nc(Nc3ccc(S(=O)(=O)N4CCCC(CN5CCC(c6ccc7c(N8CCC(=O)NC8=O)nn(C)c7c6)CC5(C)C)C4)cc3F)nc12 (stereo not shown); 77
CC(C)Oc1c(-c2cn[nH]c2)ncn2nc(Nc3ccc(S(=O)(=O)N(C)CCCN4C5CCC4CN(c4ccc6c(c4)n(C)c(=O)n6C4CCC(=O)NC4=O)C5)cc3F)nc12 (stereo not shown); 90
CC(C)Oc1c(-c2cn[nH]c2)ncn2nc(Nc3ccc(S(=O)(=O)c4cccc(C(C)N5CCN(c6ccc7c(N8CCC(=O)NC8=O)nn(C)c7c6)CC5)c4)cc3F)nc12 (single isomer, unassigned) [Compound 99]; 94
CC(C)Oc1c(-c2cn[nH]c2)ncn2nc(Nc3ccc(S(=O)(=O)N4CCC(CN5CCC(c6cccc7c6n(C)c(=O)n7C6CCC(=O)NC6=O)CC5)CC4)cc3F)nc12 (racemic); 70
CC(C)Oc1c(-c2cn[nH]c2)ncn2nc(Nc3ccc(S(=O)(=O)N4CCCC(CN5CCC(c6ccc7c(N8CCC(=O)NC8=O)nn(C)c7c6)CC5)C4)cc3F)nc12 (single isomer, unassigned) [Compound 94]; 92
CC(C)Oc1c(-c2cn[nH]c2)ncn2nc(Nc3ccc(S(=O)(=O)N(C)CCCN4CCC(c5ccc6c(c5)n(C)c(=O)n6C5CCC(=O)NC5=O)CC4)c4cnccc34)nc12 (racemic); 86
CC(C)Oc1c(-c2cn[nH]c2)ncn2nc(Nc3ccc(S(=O)(=O)N(C)CCCN4CCC(c5cccc6c5n(C)c(=O)n6C5CCC(=O)NC5=O)CC4)cc3F)nc12 (racemic); 90
CC(C)Oc1c(-c2cn[nH]c2)ncn2nc(N[C@H]3CCN(S(=O)(=O)c4cccc(CN5CCN(c6ccc7c(N8CCC(=O)NC8=O)nn(C)c7c6)CC5C)c4)C[C@H]3C)nc12 (stereo partly shown); 98
CC(C)Oc1c(-c2cn[nH]c2)ncn2nc(Nc3ccc(S(=O)(=O)N(C)CCCN4CCC(c5ccc6c(c5)n(C)c(=O)n6C5CCC(=O)NC5=O)CC4)c(F)c3F)nc12 (racemic); 93
CC(C)Oc1c(-c2cn[nH]c2)ncn2nc(Nc3ccc(S(=O)(=O)c4cccc(C(C)N5CCC(c6ccc7c(N8CCC(=O)NC8=O)nn(C)c7c6)CC5)c4)cc3F)nc12 (single isomer, unassigned) [Compound 101]; 90
